In this section we review reported growth values for a set of compounds.
Test system: A549/ATCC NSCLC
assayDetails: NCI-60 one-dose screen, 48 h (100 = growth as untreated, 0 = no growth, -100 = all killed)
conditionSet: 10 µM unless noted
The panel holds about 83,000 compounds, 20% with a hit somewhere; the sample as a whole holds those more often.
quantityName: growth (%)

> print(dat)
                                    compound  resultnumber
 1  CC1(C)CC(=O)C2=C(C1)Oc1nc(N)c(C#N)c(N)c1C2c1ccc(F)cc1 (configuration not stated)           110
 2  CCCCN(CCCC)CCCNc1c2c(nc3ccc(Cl)cc13)CCCC2          94.6
 3  O=C1C(Br)=CC2C1C1C3CCC3C2(Br)C12OCCO2 (configuration not stated)          33.2
 4  COc1cc(NC(=O)CSc2nc3ccc(Cl)cc3c(=O)n2-c2ccc(F)cc2)cc(OC)c1OC          83.8
 5  CN(CCC#N)c1ccc(/C=C(\C#N)c2cccc(C(F)(F)F)c2)cc1          36.3
 6                        CSc1nc(N)n2nccc2n1           102
 7  CC1=C(C)C(=O)C(C(C)C2=C(C)C(=O)C(C)=C(C)C2=O)=C(C)C1=O           102
 8  COc1ccc2c(N)ncc(C#Cc3cc(C(=O)Nc4ccc(CN5CCN(C)CC5)c(C(F)(F)F)c4)cnc3C)c2c1         -68.6
 9            CCCCCSc1ccc2nc(NC(=O)OCC)sc2c1          34.6
10  COc1ccccc1CNCCCN1C(=O)c2ccc3c4c(ccc(c24)C1=O)C(=O)N(CCCNCc1ccccc1OC)C3=O         -86.5
11  CCCCCCCCCCC1OC(C)CC(C)O1 (configuration not stated)          98.7
12    CC(=O)Nc1nc(C)c(C(=O)N/N=C/N2CCOCC2)s1           111
13  O=C(/C=C\c1ccc(NCc2ccc(C(=O)O)cc2)cc1)CCl           100
14  COC(=O)C(N)CC(C)C (configuration not stated)           103
15  Cc1nc2c(nnn2-c2ccccc2)c2nc(-c3ccc(Cl)cc3)oc(=O)c12           111
16  Cc1cc2c(-c3nc4ccccc4n3C)c(O)c(O)cc2c(O)c1-c1c(C)cc2c(-c3nc4ccccc4n3C)c(O)c(O)cc2c1O          26.7
17  COc1ccc(/C=C2\CCCC3=C2N=C2SC=NN2C3c2ccc(OC)c(OC)c2)cc1OC (configuration not stated)          31.9
18  O=C(Nc1ccc(Cl)c(Cl)c1)O/N=C\c1c(Cl)ccc([N+](=O)[O-])c1Cl          45.5
19  CC(O)c1cc[cH-]c1.[Fe+2].c1cc[cH-]c1 (configuration not stated)           101
20  CC(=O)OC1/C=C\CC/C=C\C1 (configuration not stated)           100
21             Cc1c(CN(C)C)cc(C(C)C)cc1C(C)C           101
22    COCC(=O)NNc1[nH]c(-c2ccc(OC)cc2)cc1C#N           112
